Task for the reader: assign each of the following binders its reported glycan array binding signal (z-score).
- system name: Fuc(a1-2)[Gal(a1-3)]Gal(b1-4)GlcNAc(b1-2)Man(a1-3)[Fuc(a1-2)[Gal(a1-3)]Gal(b1-4)GlcNAc(b1-2)Man(a1-6)]Man(b1-4)GlcNAc(b1-4)GlcNAc
- test summary: glycan array binding signal (z-score within array); higher = stronger binding
- details: glycan notation: IUPAC condensed, linker removed
The sample as a whole holds a higher share of the strongest signals than the screen did.
One number for each entry.

Below are worked cases with known answers.
SJCP3842 (Schistosoma japonicum) (protein) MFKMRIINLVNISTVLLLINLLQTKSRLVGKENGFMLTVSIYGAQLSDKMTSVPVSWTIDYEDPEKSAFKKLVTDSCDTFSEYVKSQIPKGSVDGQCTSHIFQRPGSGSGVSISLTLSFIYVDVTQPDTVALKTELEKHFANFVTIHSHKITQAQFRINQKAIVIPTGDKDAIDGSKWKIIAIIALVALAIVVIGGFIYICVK : 0.46
StdA (Salmonella typhimurium), Q8Z3Z0 (protein) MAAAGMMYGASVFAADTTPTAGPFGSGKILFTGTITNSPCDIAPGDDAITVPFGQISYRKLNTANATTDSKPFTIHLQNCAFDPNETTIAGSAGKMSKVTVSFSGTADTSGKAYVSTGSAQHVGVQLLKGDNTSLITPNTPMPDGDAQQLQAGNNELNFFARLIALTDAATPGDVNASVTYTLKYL : -0.604

Please turn your attention to the following entry.
Suppose we examine the binder BC2L-D C-terminal domain (Burkholderia cenocepacia), Q39MQ9_BURS3 (protein) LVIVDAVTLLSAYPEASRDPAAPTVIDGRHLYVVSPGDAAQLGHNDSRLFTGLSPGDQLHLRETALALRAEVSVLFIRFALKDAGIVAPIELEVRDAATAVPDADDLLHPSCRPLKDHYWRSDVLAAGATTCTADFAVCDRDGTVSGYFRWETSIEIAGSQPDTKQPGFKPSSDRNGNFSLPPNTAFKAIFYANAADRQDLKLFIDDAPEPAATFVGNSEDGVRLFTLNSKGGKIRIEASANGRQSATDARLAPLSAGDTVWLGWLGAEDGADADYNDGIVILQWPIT ; what glycan array binding signal (z-score) value has been reported?
-0.167
